Answer each item with its documented LOGP_NEUTRAL.
Experiment: log P by HPLC on a reversed-phase column (C 18), EEC Directive 79/831 Annex V.A8
Type: physicochemical
Conditions: neutral range, pH 7.8, 0.001 molar aqueous ammonium hydrogencarbonate/acetonitrile; 55° C.
One number for each entry.

{"Molecule": "CCS(=O)(=O)c1cc(Cl)ccc1-c1nc2cc(C(F)(F)F)ncc2n1C", "Quantity Kind": "LOGP_NEUTRAL", "Recorded Measurement": 2.61}
{"Molecule": "COc1ccc(SC)c(-c2nc3cc(C(F)(F)F)ncc3n2C)n1", "Quantity Kind": "LOGP_NEUTRAL", "Recorded Measurement": 2.70}
{"Molecule": "CCSc1cc(C(F)(F)F)cnc1-c1nc2cc(Cl)ncc2n1C", "Quantity Kind": "LOGP_NEUTRAL", "Recorded Measurement": 3.01}
{"Molecule": "CC[S+]([O-])c1ccccc1-c1nc2cc(C(F)(F)F)ncc2n1C (centres unmarked)", "Quantity Kind": "LOGP_NEUTRAL", "Recorded Measurement": 1.87}
{"Molecule": "CCSc1cc(C(N)=O)cnc1-c1nc2cc(C(F)(F)F)ncc2n1C", "Quantity Kind": "LOGP_NEUTRAL", "Recorded Measurement": 1.76}
{"Molecule": "CCSc1ccccc1-c1nc2nc(C(F)(F)F)ncc2o1", "Quantity Kind": "LOGP_NEUTRAL", "Recorded Measurement": 3.64}

Please supply LOGP_NEUTRAL for each of the following items, keeping them in order.
1. CCSc1ccc(Cl)cc1-c1nc2cc(C(F)(F)F)ncc2n1C
2. CCSc1cc(C(F)(F)F)cnc1-c1nc2cc(-n3ccc(C(F)(F)F)n3)ncc2n1C
3. CCS(=O)(=O)c1cc(C#N)cnc1-c1nc2cc(C(F)(F)F)ncc2n1C
4. CCSc1cccnc1-c1nc2cc(C(F)(F)F)ncc2n1C
5. CCSc1cc(C(F)(F)F)cnc1-c1nc2cc(-c3ccc(C(F)(F)F)cc3)ncc2n1C
6. Cn1c(-c2ncc(C(F)(F)F)cc2SCCO)nc2cc(C(F)(F)F)ncc21

Out:
1. 3.38
2. 4.32
3. 2.26
4. 2.32
5. 3.95
6. 2.31

For each listed entry, give its LOGP_NEUTRAL.
1. CCS(=O)(=O)c1cc(C(F)(F)F)cnc1-c1nc2cc(Cl)ncc2n1C
2. CSc1cc(Cl)ccc1-c1nc2cc(C(F)(F)F)ncc2o1
3. CCSc1cc(C(F)(F)F)cnc1-c1nc2cc(-n3cnc(C(F)(F)F)c3)ncc2n1C
4. CCSc1cc(C(F)(F)F)cnc1-c1nc2cc(C(F)(F)C(F)(F)F)ncc2n1C

Out:
1. 2.51
2. 4.41
3. 3.36
4. 4.02

Would you mind giving LOGP_NEUTRAL for every molecule in the list below?
1. CCSCCSc1cc(C(F)(F)F)cnc1-c1nc2cc(C(F)(F)F)ncc2n1C
2. CCSc1cc(C(F)(F)F)cnc1-c1nc2nc(C(F)(F)F)ncc2n1C
3. Cn1c(-c2ncc(C(F)(F)F)cc2[S+](C)[O-])nc2cc(C(F)(F)F)ncc21 (centres unmarked)

Out:
1: 3.96; 2: 3.22; 3: 2.76

Give LOGP_NEUTRAL for each of the items listed below.
1. CC(C)Sc1cc(C(F)(F)F)cnc1-c1nc2cc(C(F)(F)F)ncc2n1C
2. CCSc1cccnc1-c1nc2cc(C(F)(F)C(F)(F)F)ncc2n1C
3. Cn1c(-c2ccc(C(F)(F)F)cc2[S+](C)[O-])nc2cc(C(F)(F)F)ncc21 (centres unmarked)
4. Cn1c(-c2ncccc2SC(F)(F)F)nc2cc(C(F)(F)F)ncc21

Out:
[3.73, 2.92, 2.36, 2.93]

Could I get LOGP_NEUTRAL for every one of these entries?
1. CCS(=O)(=O)c1c(Cl)cccc1-c1nc2cc(C(F)(F)F)ncc2n1C
2. CC[S+]([O-])c1cc(C(F)(F)F)cnc1-c1nc2cc(C(F)(F)F)ncc2n1C (centres unmarked)
3. CCSc1cc(Cl)ccc1-c1nc2cc(C(F)(F)F)ncc2n1C
4. CCS(=O)(=O)c1ccccc1-c1nc2cc(C(F)(F)F)ncc2n1C
5. Cn1c(-c2ncc(C(F)(F)F)cc2S(=O)(=O)CCO)nc2cc(C(F)(F)F)ncc21
6. CSc1cc(Cl)ccc1-c1nc2nc(C(F)(F)F)ncc2n1C
7. CC[S+]([O-])c1cc(C(F)(F)F)cnc1-c1nc2cc(C(F)(F)C(F)(F)F)ncc2n1C (centres unmarked)
8. CSc1cc(C(F)(F)F)ccc1-c1nc2cc(C(F)(F)F)ncc2n1C

Out:
2.15
3.10
3.39
2.11
2.19
2.74
3.62
3.26

// each molecule listed below needs its LOGP_NEUTRAL
1. CCSc1ccc(NC(C)=O)nc1-c1nc2cc(C(F)(F)F)ncc2n1C
2. Cn1c(-c2ccc(F)cc2S(C)(=O)=O)nc2cc(C(F)(F)F)ncc21

Out:
2.27
2.05

Please state, for each entry, its recorded LOGP_NEUTRAL.
1. CCSc1cc(C(F)(F)F)cnc1-c1nc2cc(C(F)(F)F)ncc2n1C
2. CSc1cc(C(F)(F)F)cnc1-c1nc2cc(C(F)(F)F)ncc2n1C

Out:
1. 3.48
2. 3.16

Source: patent US11274097B2
